tested-on: recombinant human Bcl-2-G101V protein (Homo sapiens (Human), UniProt P10415, G101V)
test-protocol: Bcl-2-G101V TR-FRET Assay
Assay type: binding
applied-conditions: Bcl-2 G101V mutant, TR-FRET; read-out: Biochemical assay (IC50, nM) Bcl-2 G101V
Procedure: Biological Example: Bcl-2-G101V TR-FRET Assay […]. The TR-FRET signals (ex337 nm, em490 nm/520 nm) were read on BMG PHERAstar FSX instrument. The inhibition percentage of Bcl-2-G101V interaction with its ligand in presence of increasing concentrations of compounds was calculated based on the ratio of fluorescence at 490 nm to that at 520 nm. The IC50 for each compound was derived from fitting the data to the four-parameter logistic equation by Graphpad Prism software or Dotmatics.
Decide using IC50 alone. Strictly below 0.3 nM: T. Equal to or above 0.3 nM: F.

compound | label-value
CC(C)c1ccccc1C1CN(Cc2ccc(OC3CC3)cc2)CCN1C1CC2(CCN(c3ccc(C(=O)NS(=O)(=O)c4ccc(NC[C@H]5CC[C@](C)(O)CC5)c([N+](=O)[O-])c4)c(Oc4cnc5[nH]ccc5c4)c3)CC2)C1 (stereo partly shown) | F
COc1cc(CN2CCN(C3CC4(CCN(c5ccc(C(=O)NS(=O)(=O)c6ccc(NC[C@H]7CC[C@](C)(O)CC7)c([N+](=O)[O-])c6)c(Oc6cnc7[nH]cc(F)c7c6)c5)CC4)C3)[C@H](c3ccccc3C(C)C)C2)cc2ccoc12 | F
COc1cc(CN2CCN(C3CC4(CCN(c5ccc(C(=O)NS(=O)(=O)c6ccc(NC[C@H]7CC[C@](C)(O)CC7)c([N+](=O)[O-])c6)c(Oc6cnc7[nH]cc(F)c7c6)c5)CC4)C3)[C@H](c3ccccc3C(C)C)C2)cc2c1OCC2 | T
CC(C)c1ccccc1C1CN(C2CCOC2)CCN1C1CC2(CCN(c3ccc(C(=O)NS(=O)(=O)c4ccc(NC[C@H]5CC[C@](C)(O)CC5)c([N+](=O)[O-])c4)c(Oc4cnc5[nH]ccc5c4)c3)CC2)C1 (stereo partly shown) | F
CC(C)c1ccccc1C1CN(Cc2ccc3c(c2)OCO3)CCN1C1CC2(CCN(c3ccc(C(=O)NS(=O)(=O)c4ccc(NC[C@H]5CC[C@](C)(O)CC5)c([N+](=O)[O-])c4)c(Oc4cnc5[nH]ccc5c4)c3)CC2)C1 (stereo partly shown) | F
COc1cc(CN2CCN(C3CC4(CCN(c5ccc(C(=O)NS(=O)(=O)c6ccc(NC[C@H]7CC[C@](C)(O)CC7)c([N+](=O)[O-])c6)c(Oc6cnc7[nH]cc(F)c7c6)c5)CC4)C3)[C@H](c3ccccc3C(C)C)C2)cc2c1OCCC2 | T
COc1ccc(CN2CCN(C3CC4(CCN(c5ccc(C(=O)NS(=O)(=O)c6ccc(NC[C@H]7CC[C@](C)(O)CC7)c([N+](=O)[O-])c6)c(Oc6cnc7[nH]ccc7c6)c5)CC4)C3)C(c3ccccc3C(C)C)C2)cn1 (stereo partly shown) | T
COc1ccc(C(=O)N2CCN(C3CC4(C3)CN(c3ccc(C(=O)NS(=O)(=O)c5ccc(NC[C@H]6CC[C@](C)(O)CC6)c([N+](=O)[O-])c5)c(Oc5cnc6[nH]cc(F)c6c5)c3)C4)[C@H](c3ccccc3C(C)C)C2)cc1 | T
CC(C)c1ccccc1C1CN(Cc2cccc3c2CCCO3)CCN1C1CC2(CCN(c3ccc(C(=O)NS(=O)(=O)c4ccc(NC[C@H]5CC[C@](C)(O)CC5)c([N+](=O)[O-])c4)c(Oc4cnc5[nH]ccc5c4)c3)CC2)C1 (stereo partly shown) | F
COc1ccc(CN2CCN(C3CC4(C3)CN(c3ccc(C(=O)NS(=O)(=O)c5ccc(NCC67CC8CC(C6)CC(OC)(C8)C7)c([N+](=O)[O-])c5)c(Oc5cnc6[nH]cc(F)c6c5)c3)C4)[C@H](c3ccccc3C(C)C)C2)cc1 | F
CC(C)c1ccccc1[C@@H]1CN(Cc2cnn(C)c2)CCN1C1CC2(CCN(c3ccc(C(=O)NS(=O)(=O)c4ccc(NC[C@H]5CC[C@](C)(O)CC5)c([N+](=O)[O-])c4)c(Oc4cnc5[nH]ccc5c4)c3)CC2)C1 (single isomer, unassigned) [Example 22b] | F
[2H]C([2H])([2H])Oc1cc(CN2CCN(C3CC4(C3)CN(c3ccc(C(=O)NS(=O)(=O)c5ccc(NC[C@H]6CC[C@](C)(O)CC6)c([N+](=O)[O-])c5)c(Oc5cnc6[nH]ccc6c5)c3)C4)[C@H](c3ccccc3C(C)C)C2)cc2c1OCC2(C)C | F
COc1cc(CN2CCN(C3CC4(C3)CN(c3ccc(C(=O)NS(=O)(=O)c5ccc(NC[C@H]6CC[C@](C)(O)CC6)c([N+](=O)[O-])c5)c(Oc5cnc6[nH]cc(F)c6c5)c3)C4)[C@H](c3ccccc3C(C)C)C2)ccc1N1CCOCC1 | T
CC(C)c1ccccc1[C@@H]1CN(Cc2ccc(F)c(F)c2)CCN1C1CC2(C1)CN(c1ccc(C(=O)NS(=O)(=O)c3ccc(NC[C@H]4CC[C@](C)(O)CC4)c([N+](=O)[O-])c3)c(Oc3cnc4[nH]cc(F)c4c3)c1)C2 | F
COc1ccc(CN2CCN(C3CC4(CCN(c5ccc(C(=O)NS(=O)(=O)c6ccc(NC[C@H]7CC[C@](C)(O)CC7)c([N+](=O)[O-])c6)c(Oc6cnc7[nH]ccc7c6)c5)CC4)C3)C(c3cc(Cl)ccc3C(C)C)C2)cc1 (stereo partly shown) | F
